tested on: SNB-78 CNS; assay: NCI tumour cell line growth inhibition, 48 h
metric-name: TGI

O=C(c1ccc(Cl)cc1Cl)N(/N=C/C=C/c1ccccc1)c1nnc(-c2ccccc2)c(-c2ccccc2)n1: > 100 µM

Per the records, this compound ( COC(=O)CCC1=NOC(CC2CC(CCC(=O)OC)=NO2)C1 (stereo not given) ) has TGI equal to > 100 µM

Summary for this compound, CNc1ccc(/C=C2\C=Cc3ccccc32)cc1 : TGI is > 100 µM

Value of TGI reported for the compound CCCc1nc(N)nc(C(=O)Nc2cccc(C(F)(F)F)c2)c1CC is > 100 µM

GET /value?item= COc1cc(/C=C/C(=O)Oc2ccc(NC(C)=O)cc2)ccc1C(=O)OCc1ccccc1 &field=TGI returns > 89.4 µM

The compound listed as C=CCc1cc(OC)c2c(c1)C(OC(C)=O)CC(c1ccc(OC)c(OC)c1)O2 (stereo not given) shows TGI equal to > 100 µM

compound O=C(NO)C(=O)Nc1cc(Cl)ccc1Cl , TGI observed: > 100 µM

Looking up COc1ccc(C(=C[N+](=O)[O-])c2ccc(OC)cc2)cc1 , I see its TGI listed as > 84.5 µM

compound CN(C)c1[se]nc2c1c(=O)n(C)c(=O)n2C , TGI observed: > 100 µM

Entry O=Cc1c(O)ccc2ccc(O)c(-c3c(O)ccc4ccc(O)cc34)c12 ; TGI = > 100 µM

---

The following compounds are listed with their measured TGI values.
tested on: HCT-116 colon; assay: NCI tumour cell line growth inhibition, 48 h

Worked cases, answers included:
O=c1c2c([nH]c3ccccc13)CCCC2: > 100 µM
Nc1c(Br)cc2c(c1Br)Cc1cc(Br)ccc1-2: > 100 µM
Cc1c([C@H](C(Cl)Cl)[C@H](O)[C@H]2C[C@H](C)C(=O)O2)ccc2c1C(=O)[C@H]1[C@H]2C[C@@H](Br)[C@@]23O[C@@H](CO[C@H]2O)CC13C (stereo partly specified): 5.07 µM
O=Cc1c(O)ccc2ccc(O)c(-c3c(O)ccc4ccc(O)cc34)c12: > 100 µM
Cc1ccc(C)c2c1C/C(=C\c1ccccc1C(=O)O)C2=O: > 100 µM
Cc1cc(-n2c(/C=C/c3ccc(Cl)cc3)nc3cc(Cl)ccc3c2=O)on1: 29.6 µM
O=[N+]([O-])c1ccc(C2N3CCCCC3[C@H]3CCCCN23)cc1 (stereo partly specified): > 100 µM
CCc1c(-c2ccc(OC)cc2)c(=O)oc2cc(O)ccc12: > 100 µM
C[CH2][Sn]([CH2]C)([O]C(=O)c1cccc(OC)c1)[O][Sn]([CH2]C)([CH2]C)[O]C(=O)c1cccc(OC)c1: > 58.8 µM
COc1cc(/C=C/C(=O)c2ccc(Nc3nc(Nc4ccc(F)cc4)nc(Nc4ccc(Cl)cc4)n3)cc2)cc(OC)c1OC: 14.2 µM

Recorded TGI (compound C=CCN(Cc1ccncc1)C(=O)C(O)(c1ccccc1)c1ccccc1 ): > 100 µM

Given item O=[N+]([O-])c1ccc2[nH]c3c(-c4ccccc4)nccc3c2c1 , the value recorded as its TGI is > 51.8 µM

---

test system: 786-0 renal; test: NCI tumour cell line growth inhibition, 48 h
*1 amine or outer side, *2 acyl side, *3 side chain or, on linkers, in order; H or OH if unused. Where a SMILES comes first, the peptide text is derived from it. [ ]: non-standard residue; d: D form. ξ: configuration not given here. Ile(3ξ) = CCC(C)[C@H](N)C(=O)O; X33 = C=CCC(O[*:1])C(=O)[*:2]; NMeV = CN[C@H](C(=O)O)C(C)C; NMeA = CN[C@@H](C)C(=O)O; βAla = NCCC(=O)O
metric-name: TGI

COc1ccc(/C=C/c2nsc(/C=C/c3ccc(OC)cc3)n2)cc1: 41.8 µM

Notebook: Cc1cc(C#N)c[n+](C)c1 , TGI read as > 100 µM

Documented TGI of O=C1C=CC(=O)c2c(O)ccc(O)c21 : 2.55 µM

Per the records, this compound ( CCCOP1(=O)C=C(O)C(Cl)=C(C)C1 (stereo unspecified) ) has TGI equal to > 100 µM

GET /value?item= C=C1C(=O)O[C@@H]2O[C@@]3(C)CC[C@H]4[C@H](C)CC[C@@H]1[C@@]24O3 &field=TGI returns 41.3 µM

Consider COc1ccc2c(c1)oc1c(C)c3c(c(C)c12)C(=O)N(N)C3=O . Its measured TGI is > 100 µM

Just so you know, measured TGI for COC(=O)C1C(O)C(C)C(=O)C(C)/C=C\C=C(C)C(=O)Nc2c(C)c(OC(C)=O)c3c(c2O)C(=O)C(C)=C2OCOC(=C23)C(C)=CC(C)(O)C(O)C(C)C1O (stereo unspecified) came out at > 100 µM

Notebook: c1cc(-c2ccc(-c3ccc(C4=NCCCN4)cc3)o2)ccc1C1=NCCCN1 , TGI read as > 100 µM

The recorded TGI for CCOC(=O)NC(=O)c1cn(CCCOC(=O)CCCCCCCCC(=O)OCCCn2cc(C(=O)NC(=O)OCC)c(=O)n(C)c2=O)c(=O)n(C)c1=O is > 100 µM

So, O=C1c2ccccc2-c2ccccc2C(=O)C1(Br)Br ? Its TGI was 25.7 µM

Measured TGI, CCOC(=O)c1nc2cc(C(F)(F)F)ccc2nc1Oc1ccc(OC)cc1 : > 100 µM

Summary for this compound, C=CCC1OC(=O)CCNC(=O)[C@H](C)N(C)C(=O)[C@H](C(C)C)N(C)C(=O)[C@H](C(C)CC)NC(=O)[C@@H]2CCCN2C1=O (stereo partly specified) (cyclo([Ile(3ξ)][NMeV][NMeA][βAla][X33]P)) : TGI is > 100 µM

Record summary for O=C1c2ccccc2C(=Nc2ccc3ccccc3c2)C1(C1=C(c2ccccc2)C(=Nc2ccc3ccccc3c2)c2ccccc21)c1ccccc1 (stereo unspecified) : reported TGI = > 100 µM

Recorded TGI (compound CC(C)/C(Cl)=N\OC(=O)Nc1ccc(F)cc1 ): 9.55 µM

Sure, the documented TGI for Cc1c([C@H](C(Cl)Cl)[C@H](O)[C@H]2C[C@H](C)C(=O)O2)ccc2c1C(=O)[C@H]1[C@H]2C[C@@H](Br)[C@@]23O[C@@H](CO[C@H]2O)CC13C (stereo partly specified) is 21.9 µM

Memo: O=C1c2ccccc2C(=O)c2c1c(=O)c(=O)c1ccccc1c(=O)n2Cc1ccccc1 , reported TGI: > 100 µM

Form: compound = CCCSc1ccc2nc(NC(=O)OC)[nH]c2c1 ; TGI = > 100 µM

Value of measured TGI for the entry CCOC(=O)C(C(CC(=O)OC)NC(=O)OCc1ccccc1)C1(C)OCCO1 (stereo unspecified) : > 100 µM

For CN(NC(=O)/C(=C/c1ccc(Cl)cc1)NC(=O)c1ccccc1)c1cn[nH]c(=O)c1Cl the compound record lists TGI as > 100 µM

// TGI value for CN(/N=C(\C(=O)O)c1ccccc1)C1=NCCCCN1 : > 100 µM

compound COc1nc(NC2OC(COC(C)=O)C(OC(C)=O)C(OC(C)=O)C2OC(C)=O)c2c(OC(C)=O)c(C)c(=O)oc2n1 (stereo unspecified) , TGI observed: > 100 µM
